Origin of measurements: the RNAGym collection of RNA variant scans (doi:10.1101/gr.219683.116)

B1: mRNA-splicing (parent)
chain: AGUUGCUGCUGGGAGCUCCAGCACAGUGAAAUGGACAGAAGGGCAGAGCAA

# Variants of: B1
# EXPERIMENT: exon inclusion enrichment index; higher = more inclusion; WT1 exon 5 minigene, HEK293
Below: a set of entries, each annotated with reported exon inclusion enrichment index.
Form: value (number only, do not type unit).

Solved entries:
POLYMER_SEQUENCE | RECORDED_NUMBER
AACUUCUUUUGGGAGCUCCAGCACAGUGAAAUGGACAGAAGGGCAGAGCAA [G2A U3C G5U G8U C9U] | 0.198
AGUUAUAUAUGGGAGCUCCAGCACAGUGAAAUGGACCUAAGGGCAGAGCAA [G5A C6U U7A G8U C9A A37C G38U] | 0.00922
AGUUGCUGCUGGGAGCUCCAGCACAGUGACAUGGACAGAAGGGCAGAGCAA [A30C] | 0.184

Ask: Suppose we examine the variant AGUUCUUCUGCGGAGCUCCAGCACAGUGAAAUGGACAGAAGGGCAGAGCAA [G5C C6U G8C C9U U10G G11C] ; what exon inclusion enrichment index value has been reported?
Reply: 2.13

Ask: For AGUUGACGACGGGAGCUCUGGCACAGUGAAAUGGACAGAAGGGCAGAGCAA [C6A U7C C9A U10C C19U A20G] then?
Reply: 1.79

Ask: For AGUUCACACAGGGAGCUCCAGCACAGUGAAAUGGACAGAAGGUCAGAGCAA [G5C C6A U7C G8A U10A G43U] then?
Reply: 0.0948

Ask: For AGUUGCUGCUGGGAGCUCCAGCACAGUGAAAUGGACAGAAGGGCAAUGCAA [G46A A47U] then?
Reply: 0.185

Ask: For AGUUCGCGCCGGGAGCUCCAGCACAGGGAAAUGGACAGAAGGGCAGAGCAA [G5C C6G U7C U10C U27G] then?
Reply: 2.02

Ask: For AGUUAGGGAUGGGAGCUCCAGCACAGUGAAAUGGACAGAAGGGCAAAGCAA [G5A C6G U7G C9A G46A] then?
Reply: 0.00583

Ask: For AGUAUCUGCUGGGAGCUCCAGCACAGUGAAAUGGACAGAAGGGCAGAGCAA [U4A G5U] then?
Reply: 0.0569

Ask: For AGUUAGGGAUGGGAGCUCCAGCUUAGUGAAAUGGACAGAAGGGCAGAGCAA [G5A C6G U7G C9A A23U C24U] then?
Reply: 0.000744

Ask: For AGUUCUUCUCGUCAGCUCCAGCACAGUGAAAUGGACAGAAGGGCAGAGCAA [G5C C6U G8C C9U U10C G12U G13C] then?
Reply: 0.698

Ask: For AGUUCUUCUCGGGAGCUCCAGCACAGUGAAAUGGACCGAAGGGCAGAGCAA [G5C C6U G8C C9U U10C A37C] then?
Reply: 3.08

Ask: For AGUUGAAGAAGGGAGCUCCAGCACAGUGAAAUGGACGGAAGGGCAGAGCAA [C6A U7A C9A U10A A37G] then?
Reply: 1.54
